src = PubChem BioAssay AID2060889

Tested on: LG0567-F671-PDC complex spheroids viability;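 further: luminescence signal used as a proxy for viable cells; spheroids exposed to compound for seven days before readout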
protocol: Anticancer human tumor LG0567-F671-PDC patient-derived lung adenocarcinoma cell line growth inhibition [RAS]
conditions_used: curve of first compound; second compound 0.3 µM
Give IC50 for every item shown.

compound | target_entity | IC50
CCc1c2c(nc3ccc(O)cc13)-c1cc3c(c(=O)n1C2)COC(=O)[C@]3(O)CC + CCn1c(-c2cc(N3CCN(C)CC3)cnc2C(C)OC)c2c3cc(ccc31)-c1csc(n1)CC(NC(=O)C1CC1C)C(=O)N1CCCC(N1)C(=O)OCC(C)(C)C2 | LG0567-F671-PDC complex spheroids viability | < 0.949 nM

Pending compound:
Give the reported value of IC50 for this record: CC1(C)CCC(Nc2ncc(C(F)(F)F)c(-c3c[nH]c4c(P(C)(C)=O)c(C#N)ccc34)n2)CN1 (configuration not stated) + CCn1c(-c2cc(N3CCN(C)CC3)cnc2C(C)OC)c2c3cc(ccc31)-c1csc(n1)CC(NC(=O)C1CC1C)C(=O)N1CCCC(N1)C(=O)OCC(C)(C)C2
< 0.949 nM
